Compiled from multiple publications: IC50 readings for UniProtKB P49840.
Sequence (P49840 whole entry): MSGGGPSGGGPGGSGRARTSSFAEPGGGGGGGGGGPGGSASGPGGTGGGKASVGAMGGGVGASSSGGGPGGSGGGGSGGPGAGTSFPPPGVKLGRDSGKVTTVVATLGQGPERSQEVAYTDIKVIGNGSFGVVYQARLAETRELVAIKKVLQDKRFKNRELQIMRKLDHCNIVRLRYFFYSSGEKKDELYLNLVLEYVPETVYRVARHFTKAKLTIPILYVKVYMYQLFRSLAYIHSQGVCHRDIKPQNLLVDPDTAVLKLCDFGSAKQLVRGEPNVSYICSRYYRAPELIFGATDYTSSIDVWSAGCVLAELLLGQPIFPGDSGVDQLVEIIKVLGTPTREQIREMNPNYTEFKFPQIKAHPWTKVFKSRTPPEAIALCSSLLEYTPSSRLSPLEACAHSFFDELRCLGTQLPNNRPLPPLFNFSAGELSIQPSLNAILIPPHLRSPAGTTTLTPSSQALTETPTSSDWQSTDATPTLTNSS
The reply should contain only the number, in nM.

Guide cases for IC50, answers given:
{"columns": ["compound", "readout-number"],
 "data": [
  ["COc1c(NC(=O)Nc2ccc(Oc3ccnc(Nc4ccc5c(c4)C(=O)NC5)n3)c3ccccc23)cc(C(C)(C)C)cc1P(C)(C)=O", 97],
  ["COCCN(C)CCNC(=O)c1ccc(Nc2cc(Oc3ccc(NC(=O)Nc4cc(C(C)(C)C)cc(NS(C)(=O)=O)c4OC)c4ccccc34)ccn2)cc1OC", 3060],
  ["COc1cc(Nc2cc(Oc3ccc(NC(=O)Nc4cc(C(C)(C)C)cc(C[S+](C)[O-])c4OC)c4ccccc34)ccn2)cc(C(=O)NCCN2CCOCC2)c1 (stereo not drawn)", 1070]
]}

Let us examine a further case.
Reported IC50 for UniProtKB P49840, given COCCOCCOCCOc1cc(Nc2nccc(Oc3ccc(NC(=O)Nc4cc(C(C)(C)C)cc(NS(C)(=O)=O)c4-c4ccccc4)c4ccccc34)n2)cc(OC)c1 ?
8330
